B1: SPSB1 (parent)
chain: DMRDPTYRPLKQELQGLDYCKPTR

# Variants of: B1
# assay method text: protein stability index of a GFP-peptide fusion (GPS, HEK-293T) (PSI 1-6); higher = more stable;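 further: lentivirally expressed fusions sorted by FACS into six bins by GFP to DsRed ratio, PSI derived from sequencing read proportions per bin multiplied by bin number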
# condition context: c terminus: a fixed tail appended

mutant designation: D4Q
protein stability index: 3.6

mutant designation: Y19S
protein stability index: 4.35

mutant designation: R24P
protein stability index: 4.29

mutant designation: L17D
protein stability index: 4.65

mutant designation: T6H
protein stability index: 2.9

mutant designation: R24T
protein stability index: 3.27

mutant designation: T23A
protein stability index: 3.18

mutant designation: K21M
protein stability index: 2.39

mutant designation: L10Q
protein stability index: 3.68

mutant designation: T6F
protein stability index: 3.24

mutant designation: P22S
protein stability index: 3.68

mutant designation: G16K
protein stability index: 3.34

mutant designation: L17A
protein stability index: 3.82

mutant designation: L17K
protein stability index: 3.96

mutant designation: R3P
protein stability index: 3.36

mutant designation: P22A
protein stability index: 3.44
